# Procedure summary: in vivo
# Test settings: female, Swiss, mouse, in vivo, ip, 10 mg/kg
Measured property: half-life at 24 h (h)

* CC(C)(C)c1n[nH]c2c(=O)[nH]c(-c3ccc(F)cc3)nc12 [31c] | 1.56

* * *

# Tested on: T. b. brucei
# Procedure summary: Trypanosoma susceptibility assay (resazurin viability)
# Format: cell-based
# Test settings: Trypanosoma brucei; read-out: IC50 against T. b. brucei
Measured property: IC50 (nM)

• CC(C)(C)c1n[nH]c2c(=O)[nH]c(-c3ccc(F)cc3)nc12 [31c] = 17

* * *

# Procedure summary: in vivo
# Test settings: female, Swiss, mouse, in vivo, po, 50 mg/kg
Measured property: half-life at 24 h (h)

* CC(C)(C)c1n[nH]c2c(=O)[nH]c(-c3ccc(F)cc3)nc12 [31c] | 3.51

* * *

# Procedure summary: in vivo
# Test settings: female, Swiss, mouse, in vivo, po, 50 mg/kg
Measured property: Cmax at 24 h (µM)

- CC(C)(C)c1n[nH]c2c(=O)[nH]c(-c3ccc(F)cc3)nc12 [31c]: 10.9

* * *

# Procedure summary: in vivo
# Test settings: female, Swiss, mouse, in vivo, po, 50 mg/kg
Measured property: concentration at 24 h (nM)

- CC(C)(C)c1n[nH]c2c(=O)[nH]c(-c3ccc(F)cc3)nc12 [31c]: 296

* * *

# Test system: T. b. brucei
# Procedure summary: Trypanosoma susceptibility assay (resazurin viability)
# Assay type: cell-based
# Test settings: T. b. brucei, versus compound 2
Measured property: decrease of antitrypanosomal activity compared with 2

• CC(C)c1nn(C(C)C)c2c(=O)[nH]c(-c3ccc(F)cc3)nc12 [21c] = ~100 fold
• CC(C)c1c2nc(-c3ccc(F)cc3)[nH]c(=O)c2nn1C [compound 15] = 20 fold
• CC(C)c1[nH]nc2c(=O)n(C)c(-c3ccc(F)cc3)nc12 [compound 7] = > 100 fold
• CC(C)c1n[nH]c2c(=N)[nH]c(-c3ccc(F)cc3)nc12 [compound 17] = > 100 fold

* * *

# Procedure summary: in vivo
# Test settings: female, Swiss, mouse, in vivo, ip, 10 mg/kg
Reported Tmax at 24 h by item:
Measured property: Tmax at 24 h (min)

• CC(C)c1n[nH]c2c(=O)[nH]c(-c3ccc(F)cc3)nc12 = 15
• CC(C)(C)c1n[nH]c2c(=O)[nH]c(-c3ccc(F)cc3)nc12 [31c] = 30

* * *

# Procedure summary: in vivo
# Test settings: female, Swiss, mouse, in vivo, ip, 10 mg/kg
Measured property: Cmax at 24 h

* CC(C)(C)c1n[nH]c2c(=O)[nH]c(-c3ccc(F)cc3)nc12 [31c] | 5.05 µM
